Assay: Repeat once-weekly IV dose toxicokinetics in rats
Type: in vivo
Conditions: female, rat, in vivo, iv, 3.1 mg/kg, rats F, 3.1 mg/kg once-weekly IV, Day 0
recordedEndpoint: C0 (ng/mL)
Answers are plain numbers, in ng/mL.

### Prompt C0 for CC1(C)C(=CC=C2CCCC(C=CC3=[N+](CCCCS(=O)(=O)[O-])c4ccc(S(=O)(=O)O)cc4C3(C)C)=C2Oc2ccc(CC(NC(=O)c3ccc(NCc4cnc5nc(N)[nH]c(=O)c5n4)cc3)C(=O)O)cc2)N(CCCCS(=O)(=O)O)c2ccc(S(=O)(=O)O)cc21 (stereo not shown) ?
### Response 21200
